- Tested on: MM.1S cells
- TEST METHOD NOTES: MM.1S cell proliferation inhibition (MTS assay)
- Format: cell-based
- CONDITION LABEL: Homo sapiens, MM1.S, 168 h, 7 days incubation, read-out: MM1.S (IC50, Inhibitory Activity of Compounds on MM.1S Cell Proliferation)
The reader will find reported IC50 values listed item by item below.

// known answers, use as guide
CCn1c2c(OCc3ccc(CN4CCOCC4)cc3)cccc2c(=O)n1C1CCC(=O)NC1=O (stereo not shown) | > 10 µM
C[C@@H](NC(=O)c1ccc2c(=O)n(C3CCC(=O)NC3=O)[nH]c2c1)c1ccc(Cl)cc1 (stereo partly shown) | > 10 µM
O=C1CCC(n2[nH]c3c(OCc4ccc(CN5CCN(c6ccc(Cl)cc6)CC5)cc4)cc(F)cc3c2=O)C(=O)N1 (stereo not shown) | < 0.2 µM

The measured IC50 that O=C1CCC(n2[nH]c3c(OCc4ccc(CN5CCN(c6cccc(Cl)c6)CC5)cc4)cccc3c2=O)C(=O)N1 (stereo not shown) showed for MM.1S cells is < 0.2 µM
